The reported measurements were obtained from PubChem BioAssay AID2060884.

# Tested on: NCI-H929 complex spheroids, viability % test/control
# TEST_DETAILS: Anticancer human tumor NCI-H929 cell line growth inhibition [RAS];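 note: compound exposure lasted seven days before viability was read; 100% = DMSO vehicle control viability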
# SETUP_CONDITIONS: second compound 0.0949 µM; first compound 3.16 µM; stronger effect = lower value
MEASUREMENT_KIND: viability, T/C (%)
Provide the reading as a plain figure in %.

Request: Look at this compound and give its reported viability, T/C. CC(=O)OC12COC1CC(O)C1(C)C(=O)C(O)C3=C(C)C(OC(=O)C(O)C(NC(=O)OC(C)(C)C)c4ccccc4)CC(O)(C(OC(=O)c4ccccc4)C21)C3(C)C (stereo not drawn) + CCn1c(-c2cc(N3CCN(C)CC3)cnc2C(C)OC)c2c3cc(ccc31)-c1csc(n1)CC(NC(=O)C1CC1C)C(=O)N1CCCC(N1)C(=O)OCC(C)(C)C2
Result: 1.05

Request: Now consider CCC(CC)c1cc(NC2CCC(N)C2)n2nccc2n1 (stereo not drawn) + CCn1c(-c2cc(N3CCN(C)CC3)cnc2C(C)OC)c2c3cc(ccc31)-c1csc(n1)CC(NC(=O)C1CC1C)C(=O)N1CCCC(N1)C(=O)OCC(C)(C)C2 and answer again.
Result: 0.11

Request: Now consider Cc1nc(N2CCC3(CC2)COC(C)C3N)c(CO)nc1Sc1ccnc(N)c1Cl (stereo not drawn) + CCn1c(-c2cc(N3CCN(C)CC3)cnc2C(C)OC)c2c3cc(ccc31)-c1csc(n1)CC(NC(=O)C1CC1C)C(=O)N1CCCC(N1)C(=O)OCC(C)(C)C2 and answer again.
Result: 4.2

====

# Test system: NCI-H929 complex spheroids, viability % test/control
# TEST_DETAILS: Anticancer human tumor NCI-H929 cell line growth inhibition [RAS]; active = viability on the fitted dose curve at most 10% of control; inactive = the rest;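 note: compound exposure lasted seven days before viability was read; 100% = DMSO vehicle control viability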
# SETUP_CONDITIONS: second compound 0.03 µM; first compound 0.01 µM
The reply should be one of these categories: YES = active, NO = inactive

[
  {
    "COMPOUND": "C=CC(=O)N1CCN(c2nc(OCC3CCCN3C)nc3c(F)c(-c4nc(N)cc(C)c4C(F)(F)F)c(Cl)cc23)C(C)C1 (centres undefined) + CCn1c(-c2cc(N3CCN(C)CC3)cnc2C(C)OC)c2c3cc(ccc31)-c1csc(n1)CC(NC(=O)C1CC1C)C(=O)N1CCCC(N1)C(=O)OCC(C)(C)C2",
    "GROUP": "NO"
  },
  {
    "COMPOUND": "O=C(c1ccc(F)c(F)c1Nc1ccc(I)cc1F)N1CC(O)([C@@H]2CCCCN2)C1 + CCn1c(-c2cccnc2C(C)OC)c2c3cc(ccc31)N1CCOC(CC(NC(=O)C(C(C)C)N(C)C(=O)C3(F)CCN(C(=O)C#CC(C)(C)N(C)C)CC3)C(=O)N3CCCC(N3)C(=O)OCC(C)(C)C2)C1",
    "GROUP": "NO"
  }
]

Request: Given Nc1ccn(C2OC(CO)C(O)C2(F)F)c(=O)n1 (centres undefined) + CCn1c(-c2cccnc2C(C)OC)c2c3cc(ccc31)N1CCOC(CC(NC(=O)C(C(C)C)N(C)C(=O)C3(F)CCN(C(=O)C#CC(C)(C)N(C)C)CC3)C(=O)N3CCCC(N3)C(=O)OCC(C)(C)C2)C1 , state the outcome it received in this test.
Result: YES

Request: Now consider CC(C)n1nc(-c2ccc3oc(N)nc3c2)c2c(N)ncnc21 + CCn1c(-c2cccnc2C(C)OC)c2c3cc(ccc31)N1CCOC(CC(NC(=O)C(C(C)C)N(C)C(=O)C3(F)CCN(C(=O)C#CC(C)(C)N(C)C)CC3)C(=O)N3CCCC(N3)C(=O)OCC(C)(C)C2)C1 and answer again.
Result: NO

====

# System: NCI-H929 complex spheroids, viability % test/control
# TEST_DETAILS: Anticancer human tumor NCI-H929 cell line growth inhibition [RAS];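 note: compound exposure lasted seven days before viability was read; 100% = DMSO vehicle control viability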
# SETUP_CONDITIONS: second compound 0.3 µM; first compound 0.1 µM; stronger effect = lower value
Each entry below carries its recorded viability, T/C.
Provide the reading as a plain figure in %.

Before answering, review these 3 worked examples.
[
  {
    "MOLECULE": "NC1c2ccccc2OC12CCN(c1cnc3c(N4CCCc5ncccc54)n[nH]c3n1)CC2 (centres undefined) + CCn1c(-c2cccnc2C(C)OC)c2c3cc(ccc31)N1CCOC(CC(NC(=O)C(C(C)C)N(C)C(=O)C3(F)CCN(C(=O)C#CC(C)(C)N(C)C)CC3)C(=O)N3CCCC(N3)C(=O)OCC(C)(C)C2)C1",
    "MEASUREMENT_KIND": "viability, T/C",
    "RESULT_VALUE": 99.6
  },
  {
    "MOLECULE": "C[C@@H](NC(=O)c1ncnc(N)c1Cl)c1ncc(C(=O)Nc2cc(C(F)(F)F)c(Cl)cn2)s1 + CCn1c(-c2cc(N3CCN(C)CC3)cnc2C(C)OC)c2c3cc(ccc31)-c1csc(n1)CC(NC(=O)C1CC1C)C(=O)N1CCCC(N1)C(=O)OCC(C)(C)C2",
    "MEASUREMENT_KIND": "viability, T/C",
    "RESULT_VALUE": 9.47
  },
  {
    "MOLECULE": "CC1(O)CCCC1n1c(=O)c(C(F)F)cc2cnc(NC3CCN(S(C)(=O)=O)CC3)nc21 (centres undefined) + CCn1c(-c2cc(N3CCN(C)CC3)cnc2C(C)OC)c2c3cc(ccc31)-c1csc(n1)CC(NC(=O)C1CC1C)C(=O)N1CCCC(N1)C(=O)OCC(C)(C)C2",
    "MEASUREMENT_KIND": "viability, T/C",
    "RESULT_VALUE": 2.32
  }
]

Request: Look at this molecule and give its reported viability, T/C. CC1(O)CCCC1n1c(=O)c(C(F)F)cc2cnc(NC3CCN(S(C)(=O)=O)CC3)nc21 (centres undefined) + CCn1c(-c2cccnc2C(C)OC)c2c3cc(ccc31)N1CCOC(CC(NC(=O)C(C(C)C)N(C)C(=O)C3(F)CCN(C(=O)C#CC(C)(C)N(C)C)CC3)C(=O)N3CCCC(N3)C(=O)OCC(C)(C)C2)C1
Result: 13.5

====

# Test system: NCI-H929 complex spheroids, viability % test/control
# TEST_DETAILS: Anticancer human tumor NCI-H929 cell line growth inhibition [RAS]; active = viability on the fitted dose curve at most 10% of control; inactive = the rest;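 note: compound exposure lasted seven days before viability was read; 100% = DMSO vehicle control viability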
# SETUP_CONDITIONS: second compound 0.03 µM; first compound 3.16 µM
The reply should be one of these categories: active, inactive

Example results:
[
  {
    "MOLECULE": "Cc1nc(N2CCC3(CC2)COC(C)C3N)c(CO)nc1Sc1ccnc(N)c1Cl (stereo not drawn) + CCn1c(-c2cccnc2C(C)OC)c2c3cc(ccc31)N1CCOC(CC(NC(=O)C(C(C)C)N(C)C(=O)C3(F)CCN(C(=O)C#CC(C)(C)N(C)C)CC3)C(=O)N3CCCC(N3)C(=O)OCC(C)(C)C2)C1",
    "GROUP": "inactive"
  },
  {
    "MOLECULE": "CC(=O)OC12COC1CC(O)C1(C)C(=O)C(O)C3=C(C)C(OC(=O)C(O)C(NC(=O)OC(C)(C)C)c4ccccc4)CC(O)(C(OC(=O)c4ccccc4)C21)C3(C)C (stereo not drawn) + CCn1c(-c2cccnc2C(C)OC)c2c3cc(ccc31)N1CCOC(CC(NC(=O)C(C(C)C)N(C)C(=O)C3(F)CCN(C(=O)C#CC(C)(C)N(C)C)CC3)C(=O)N3CCCC(N3)C(=O)OCC(C)(C)C2)C1",
    "GROUP": "active"
  },
  {
    "MOLECULE": "CCC(CC)c1cc(NC2CCC(N)C2)n2nccc2n1 (stereo not drawn) + CCn1c(-c2cc(N3CCN(C)CC3)cnc2C(C)OC)c2c3cc(ccc31)-c1csc(n1)CC(NC(=O)C1CC1C)C(=O)N1CCCC(N1)C(=O)OCC(C)(C)C2",
    "GROUP": "active"
  },
  {
    "MOLECULE": "CCC(CC)c1cc(NC2CCC(N)C2)n2nccc2n1 (stereo not drawn) + CCn1c(-c2cccnc2C(C)OC)c2c3cc(ccc31)N1CCOC(CC(NC(=O)C(C(C)C)N(C)C(=O)C3(F)CCN(C(=O)C#CC(C)(C)N(C)C)CC3)C(=O)N3CCCC(N3)C(=O)OCC(C)(C)C2)C1",
    "GROUP": "active"
  }
]

Request: Given NC1c2ccccc2OC12CCN(c1cnc3c(N4CCCc5ncccc54)n[nH]c3n1)CC2 (stereo not drawn) + CCn1c(-c2cccnc2C(C)OC)c2c3cc(ccc31)N1CCOC(CC(NC(=O)C(C(C)C)N(C)C(=O)C3(F)CCN(C(=O)C#CC(C)(C)N(C)C)CC3)C(=O)N3CCCC(N3)C(=O)OCC(C)(C)C2)C1 , state the outcome it received in this test.
Result: inactive

Request: Now consider Cc1nc(N2CCC3(CC2)COC(C)C3N)c(CO)nc1Sc1ccnc(N)c1Cl (stereo not drawn) + CCn1c(-c2cc(N3CCN(C)CC3)cnc2C(C)OC)c2c3cc(ccc31)-c1csc(n1)CC(NC(=O)C1CC1C)C(=O)N1CCCC(N1)C(=O)OCC(C)(C)C2 and answer again.
Result: inactive

Request: Now consider CC(C)NCC(C(=O)N1CCN(c2ncnc3c2C(C)CC3O)CC1)c1ccc(Cl)cc1 (stereo not drawn) + CCn1c(-c2cc(N3CCN(C)CC3)cnc2C(C)OC)c2c3cc(ccc31)-c1csc(n1)CC(NC(=O)C1CC1C)C(=O)N1CCCC(N1)C(=O)OCC(C)(C)C2 and answer again.
Result: active

Request: Now consider CC(=O)OC12COC1CC(O)C1(C)C(=O)C(O)C3=C(C)C(OC(=O)C(O)C(NC(=O)OC(C)(C)C)c4ccccc4)CC(O)(C(OC(=O)c4ccccc4)C21)C3(C)C (stereo not drawn) + CCn1c(-c2cc(N3CCN(C)CC3)cnc2C(C)OC)c2c3cc(ccc31)-c1csc(n1)CC(NC(=O)C1CC1C)C(=O)N1CCCC(N1)C(=O)OCC(C)(C)C2 and answer again.
Result: active
